# system tested: Cathepsin B from bovine spleen (bovine, UniProt P07688 80-332)
# protocol description: cell-based or functional assay
Note to self: values exactly at 90 are Y. So Cathepsin B inhibition test, 2 mM peptide at or above 90 is Y, below is N.

binder	qualitative label
Ac-KISIHL-OH [Ac-KISIHL-OH]	Y
Ac-KISI-OH (also: MGO-modified, site not given here) [MGO-modified Ac-KISI-OH]	Y
Ac-PFKISIHL-OH (also: MGO-modified, site not given here) [MGO-modified Ac-PFKISIHL-OH]	N
Ac-KISI-OH [Ac-KISI-OH]	Y
Ac-KISIHL-OH (also: MGO-modified, site not given here) [MGO-modified Ac-KISIHL-OH]	N
Ac-PFKISIHL-OH [Ac-PFKISIHL-OH]	Y
Ac-PFKI-OH [Ac-PFKI-OH]	Y
